# IC50 per record follows
# Measurement target: human TRPC5 (Homo sapiens)
# Construct: expressed in transfected cells
# Measurement notes: FLIPR calcium assay, inhibition of riluzole-activated TRPC5 calcium response
# Type: cell-based
# Experimental setup: ICLN-1633 cells; riluzole 30 μM stimulation; Fluo-4 calcium response; read-out: Inhibitor Potency Range (FLIPR)

Take a look at these entries with their results.
CN1C(=O)CN(CCO)C(=O)c2c1nc(Oc1cccc(OC(F)(F)F)c1)n2Cc1ccc(Cl)cc1 [Compound 10]
1000 to 10000 nM
CCCCn1c(Oc2cccc(Cl)c2)nc2c1C(=O)N(CCCO)C(=O)[C@@H]1CCCN21 [Compound 32]
1 to 1000 nM
CN1CC(=O)N(CCCO)C(=O)c2c1nc(Oc1cccc(OC(F)(F)F)c1)n2Cc1ccc(Cl)cc1 [Compound 21]
1 to 1000 nM

Please look at the following compound next.
Prompt line: Tell me IC50 of CN1C(=O)CN([C@H]2CC[C@H](O)C2)C(=O)c2c1nc(Oc1cccc(OC(F)(F)F)c1)n2Cc1ccc(Cl)cc1 (single isomer, unassigned) [Compound 16] when tested on human TRPC5 (Homo sapiens).
Response line: 1000 to 10000 nM

###

# Measurement target: human TRPC5 (Homo sapiens, UniProt Q9UL62)
# Construct: expressed in transfected cells
# Measurement notes: FLIPR calcium assay, inhibition of riluzole-activated TRPC5 calcium response
# Type: cell-based
# Experimental setup: ICLN-1633 cells; riluzole 30 μM stimulation; Fluo-4 calcium response; read-out: Inhibitor Potency Range (FLIPR)
pIC50: −log10 of the molar value.
Experimental endpoint: pIC50

C[C@@H]1C(=O)N(C)c2nc(Oc3cccc(F)c3)n(Cc3ccc(Cl)cc3)c2C(=O)N1CCCO (single isomer, unassigned)
< 5.00
O=C1c2c(nc(Oc3cccc(OC(F)(F)F)c3)n2Cc2ccc(Cl)cc2)N2CCC[C@H]2C(=O)N1CCCO (single isomer, unassigned)
< 5.00

Please look at the following compound next.
Prompt line: Tell me pIC50 of O=C1c2c(nc(Oc3cccc(OC(F)(F)F)c3)n2Cc2ccc(Cl)cc2)N2CCC[C@@H]2C(=O)N1CCCO (single isomer, unassigned) when tested on human TRPC5 (Homo sapiens, UniProt Q9UL62).
Response line: 6.00 to 9.00

###

# Measurement target: human TRPC5 (Homo sapiens)
# Construct: expressed in transfected cells
# Sequence (Q9UL62 1-973): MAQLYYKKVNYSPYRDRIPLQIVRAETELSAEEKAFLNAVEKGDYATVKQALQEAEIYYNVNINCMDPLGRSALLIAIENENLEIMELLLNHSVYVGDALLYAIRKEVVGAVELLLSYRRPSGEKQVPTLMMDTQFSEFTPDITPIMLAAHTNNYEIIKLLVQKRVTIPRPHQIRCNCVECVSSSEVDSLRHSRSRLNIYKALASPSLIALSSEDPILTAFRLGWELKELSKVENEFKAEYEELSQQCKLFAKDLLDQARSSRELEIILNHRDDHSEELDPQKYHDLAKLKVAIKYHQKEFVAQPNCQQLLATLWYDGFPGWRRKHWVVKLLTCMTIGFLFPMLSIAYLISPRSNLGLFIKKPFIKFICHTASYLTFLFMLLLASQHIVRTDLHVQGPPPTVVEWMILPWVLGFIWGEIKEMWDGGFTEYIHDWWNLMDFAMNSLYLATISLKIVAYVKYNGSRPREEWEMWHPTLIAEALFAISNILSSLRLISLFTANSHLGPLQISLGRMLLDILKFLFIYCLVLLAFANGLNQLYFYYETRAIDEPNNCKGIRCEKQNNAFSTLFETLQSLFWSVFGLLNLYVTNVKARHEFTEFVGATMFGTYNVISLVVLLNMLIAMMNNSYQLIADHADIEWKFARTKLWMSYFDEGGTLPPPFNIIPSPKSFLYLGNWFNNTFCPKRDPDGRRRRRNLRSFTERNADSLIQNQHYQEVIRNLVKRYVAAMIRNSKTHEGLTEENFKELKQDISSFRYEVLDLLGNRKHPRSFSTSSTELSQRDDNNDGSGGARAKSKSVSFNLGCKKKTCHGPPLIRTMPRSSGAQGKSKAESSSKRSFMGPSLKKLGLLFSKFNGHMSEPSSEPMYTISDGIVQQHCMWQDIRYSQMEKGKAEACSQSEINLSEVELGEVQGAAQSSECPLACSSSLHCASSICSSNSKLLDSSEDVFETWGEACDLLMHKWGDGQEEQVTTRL
# Measurement notes: FLIPR calcium assay, inhibition of riluzole-activated TRPC5 calcium response
# Assay type: cell-based
# Experimental setup: ICLN-1633 cells; riluzole 30 μM stimulation; Fluo-4 calcium response; read-out: Inhibitor Potency Range (FLIPR)
Experimental endpoint: IC50

Take a look at these entries with their results.
O=C1c2c(nc(Oc3cccc(OC(F)(F)F)c3)n2Cc2ccc(Cl)cc2)N2CCC[C@@H]2CN1CCCO (single isomer, unassigned)
1 to 1000 nM
CCCOc1nc2c(n1Cc1ccc(Cl)cc1)C(=O)N(CCCO)C(=O)[C@H]1CCCN21
> 10000 nM
C[C@H]1C(=O)N(C)c2nc(Oc3cccc(F)c3)n(Cc3ccc(Cl)cc3)c2C(=O)N1CCCO (single isomer, unassigned)
1 to 1000 nM

Please look at the following compound next.
Prompt line: Tell me IC50 of "CCCOc1nc2c(n1Cc1ccc(Cl)cc1)C(=O)N(CCCO)C(=O)[C@@H]1CCCN21" when tested on human TRPC5 (Homo sapiens).
Response line: > 10000 nM
